Entry source: PubChem BioAssay (NCI)

# growth values compiled below
Test system: HCC-2998 colon
Assay: NCI-60 one-dose screen, 48 h (100 = growth as untreated, 0 = no growth, -100 = all killed)
Details: 10 µM unless noted
The panel holds about 83,000 compounds, 20% with a hit somewhere; the sample as a whole holds those more often.
Could you give me the number in %? Just the number is fine.

Below, 3 compounds whose answers are already recorded.
- compound: "Cc1ccccc1NC(=O)Oc1ccc(Cl)cc1C(=O)c1ccccc1"
  unitString: "%"
  observedMeasurement: 107
- compound: "CCOC(=O)C(COS(C)(=O)=O)(COS(C)(=O)=O)C(=O)OCC"
  unitString: "%"
  observedMeasurement: 106
- compound: "Oc1ccc2ccccc2c1CN1CCOCC1"
  unitString: "%"
  observedMeasurement: 105

Prompt line: Name the recorded growth of Oc1ccc(N=Cc2ccc(OCc3ccccc3)cc2)cc1 , assay system HCC-2998 colon.
Response line: 112

Prompt line: Name the recorded growth of O=S(=O)(O)c1cccc2cccnc12 , assay system HCC-2998 colon.
Response line: 103

Prompt line: Name the recorded growth of CCN(C(C)=O)c1ccc([N+](=O)[O-])cc1 , assay system HCC-2998 colon.
Response line: 97.8

Prompt line: Name the recorded growth of CC(C)(CC(=O)O)CC(=O)O , assay system HCC-2998 colon.
Response line: 99.8

Prompt line: Name the recorded growth of COC1OC(C(COC(C)=O)OC(C)=O)C(OC(C)=O)C(OC(C)=O)C1OC(C)=O (stereo unspecified) , assay system HCC-2998 colon.
Response line: 115

* * *

Test system: K-562 leukemia
Experiment: NCI-60 one-dose screen, 48 h
Conditions: 10 µM unless noted
About 83,000 compounds went through this panel and 20% of them were active in at least one assay; those are over-represented in the sample as a whole. Calls of active or inactive are those of the source. How the source made its calls: active means growth percent below 10; inactive means the rest.
API: response.call in 1 for active, -1 for inactive

- molecule: "S=C(Sc1ccc(Cl)cc1)Sc1ccc(Cl)cc1"
  classAssignment: 1
- molecule: "CC(=O)N(CCCCCCN(C(C)=O)C(C)=O)C(C)=O"
  classAssignment: -1
- molecule: "C/C(=N\\N=C(/C)c1cccc([N+](=O)[O-])c1)c1cccc([N+](=O)[O-])c1"
  classAssignment: -1
- molecule: "C[C@H](CCC[C@H](C)OS(=O)(=O)c1ccccc1)OS(=O)(=O)c1ccccc1"
  classAssignment: -1
- molecule: "CC(=O)NNC(=S)/N=C\\C(C(=O)c1ccccc1)=C(/O)c1ccccc1"
  classAssignment: -1
- molecule: "CCNC(=O)Oc1ccc[nH]c1=O"
  classAssignment: -1
- molecule: "CCCCCCCCCCC(=O)CCCCCCCCCC"
  classAssignment: -1
- molecule: "Clc1ncnc2nc[nH]c12"
  classAssignment: -1

Prompt line: Could you kindly confirm the outcome this assay logged for COC1OC(CO)C(OC)C(O)C1O (configuration not stated) ?
Response line: -1

Prompt line: Could you kindly confirm the outcome this assay logged for CCCCOC(=O)c1ccccc1O ?
Response line: -1

Prompt line: Could you kindly confirm the outcome this assay logged for Cc1ccc(C)c(CCO)c1 ?
Response line: -1

Prompt line: Could you kindly confirm the outcome this assay logged for Nc1ncnc(Nc2ccc(C(F)(F)F)cc2)n1 ?
Response line: -1

Prompt line: Could you kindly confirm the outcome this assay logged for CCOC(=O)c1c(C)[nH]c(C)c1C=O ?
Response line: -1

Prompt line: Could you kindly confirm the outcome this assay logged for O=S(Cc1ccccc1)/C(=C/NC(=S)Nc1ccccc1)c1ccccc1 (configuration not stated) ?
Response line: -1

Prompt line: Could you kindly confirm the outcome this assay logged for CCC(/C=C\C(C)=O)CC ?
Response line: -1

Prompt line: Could you kindly confirm the outcome this assay logged for C=CC(=O)OC1CCC(C(C)(C)CC)CC1 (configuration not stated) ?
Response line: -1

Prompt line: Could you kindly confirm the outcome this assay logged for CC(=O)OC/C(C)=C\CC(C)COC(C)=O (configuration not stated) ?
Response line: -1
